Reported CC50 values for a set of compounds
system: HEL cells; details: read-out: CC50 (HEL); HEL cells; anti-VZV table
Give the quantity in µM, number only.

{"compound": "CCCCCCCCCCNC(=O)C(N)CCCCNCc1c(O)cc2c(c1O)-c1cc(ccc1O)C1NC(=O)C3NC(=O)C4NC(=O)C(Cc5ccc(c(Cl)c5)Oc5cc3cc(c5O)Oc3ccc(cc3Cl)C(O)C(NC1=O)C(=O)NC2C(=O)NCCCN(C)C)NC(=O)C(N)c1ccc(O)c(c1)Oc1cc(O)cc4c1 (stereo not shown) [Compound 16]", "assay-result": 137}

Next compound, CC50 to be filled in.
Data request: Please indicate recorded CC50 of CCCCCCCCCCNCc1c(O)cc2c(c1O)-c1cc(ccc1O)C1NC(=O)C3NC(=O)C4NC(=O)C(Cc5ccc(c(Cl)c5)Oc5cc3cc(c5O)Oc3ccc(cc3Cl)C(O)C(NC1=O)C(=O)NC2C(=O)NCCCN(C)C)NC(=O)C(NC(=O)C(N)CCCCN)c1ccc(O)c(c1)Oc1cc(O)cc4c1 (stereo not shown) [Compound 121] measured with HEL cells.
Data returned: 40

###

Reported MTC (HEL) values for a set of compounds
system: HEL cells; details: anti-CMV table

Worked set:
{"compound": "CNC(CC(C)C)C(=O)NC1C(=O)NC(CC(N)=O)C(=O)NC2C(=O)NC3C(=O)NC(C(=O)NC(C(=O)O)c4cc(O)cc(O)c4-c4cc3ccc4O)C(O)c3ccc(c(Cl)c3)Oc3cc2cc(c3OC2OC(CO)C(O)C(O)C2OC2CC(C)(NCc3ccc(-c4ccc(Cl)cc4)cc3)C(O)C(C)O2)Oc2ccc(cc2Cl)C1O (stereo not drawn) [Compound 59]", "assay-target": "HEL cells", "MTC (HEL)": "5 to 20 µM"}
{"compound": "O=C1NC2C(=O)NC3C(=O)NC4C(=O)NC(C(=O)NC(C(=O)O)c5cc(O)cc(O)c5-c5cc4ccc5O)C(O)c4ccc(c(Cl)c4)Oc4cc3cc(c4O)Oc3ccc(cc3Cl)CC1NC(=O)C(NCc1ccc(-c3ccccc3)cc1)c1ccc(O)c(c1)Oc1cc(O)cc2c1 (stereo not drawn) [Compound 122]", "assay-target": "HEL cells", "MTC (HEL)": "20 to 50 µM"}
{"compound": "CCCCCCCCCCNC1(C)CC(OC2C(Oc3c4cc5cc3Oc3ccc(cc3Cl)C(O)C(NC(=O)C(CC(C)C)NC)C(=O)NC(CC(N)=O)C(=O)NC5C(=O)NC3C(=O)NC(C(=O)NC(C(=O)O)c5cc(O)cc(O)c5-c5cc3ccc5O)C(OC3CC(C)(N)C(O)C(C)O3)c3ccc(cc3)O4)OC(CO)C(O)C2O)OC(C)C1O (stereo not drawn) [Compound 68]", "assay-target": "HEL cells", "MTC (HEL)": "5 to 50 µM"}

Data request: For the compound CCCCc1ccc(CN2CCN(Cc3c(O)cc4c(c3O)-c3cc(ccc3O)C3NC(=O)C5NC(=O)C6NC(=O)C(Cc7ccc(c(Cl)c7)Oc7cc5cc(c7O)Oc5ccc(cc5Cl)C(O)C(NC3=O)C(=O)NC4C(=O)NC)NC(=O)C(N)c3ccc(O)c(c3)Oc3cc(O)cc6c3)CC2)cc1 (stereo not drawn) [Compound 31] , report MTC (HEL).
Data returned: 20 to 50 µM

Data request: For the compound CCCCCCCCCNCc1c(O)cc2c(c1O)-c1cc(ccc1O)C1NC(=O)C3NC(=O)C4NC(=O)C(Cc5ccc(c(Cl)c5)Oc5cc3cc(c5O)Oc3ccc(cc3Cl)C(O)C(NC1=O)C(=O)NC2C(=O)NCCCN(C)C)NC(=O)C(N)c1ccc(O)c(c1)Oc1cc(O)cc4c1 (stereo not drawn) [Compound 21] , report MTC (HEL).
Data returned: 5 to 50 µM

###

Reported pEC50 values for a set of molecules
Tested on: HIV-1 (IIIB)
Experiment: Inhibition of HIV-1 (IIIB)-induced cytopathicity (giant cell formation) in CEM cells
Assay type: cell-based
Conditions: read-out: EC50 HIV-1 (concentration required to inhibit HIV-induced giant cell formation by 50%); HIV-1, CEM cell cultures
Description: A variety of glycopeptide antibiotic derivatives of vancomycin, eremomycin and teicoplanin including their aglycon derivatives were evaluated for their inhibitory activity against HIV-1 (IIIB) and HIV-2(ROD) in CEM cell cultures.
API: returns pEC50 as number; meaning -log10 of concentration in mol/L.

{"molecule": "NC(=O)CC1NC(=O)C(NC(=O)C(N)Cc2c[nH]c3ccccc23)C(O)c2ccc(c(Cl)c2)Oc2cc3cc(c2O)Oc2ccc(cc2)C(O)C2NC(=O)C(NC(=O)C3NC1=O)c1ccc(O)c(c1)-c1c(O)cc(O)cc1C(C(=O)O)NC2=O (centres unmarked)", "parameter": "pEC50", "assay-result": 5.14}

Next molecule, pEC50 to be filled in.
Data request: For the molecule CCCCCCCCCC[N+]1(C)CCN(Cc2c(O)cc3c(c2O)-c2cc(ccc2O)C2NC(=O)C4NC(=O)C5NC(=O)C(Cc6ccc(c(Cl)c6)Oc6cc4cc(c6O)Oc4ccc(cc4Cl)C(O)C(NC2=O)C(=O)NC3C(=O)NCCCN(C)C)NC(=O)C(N)c2ccc(O)c(c2)Oc2cc(O)cc5c2)CC1 (centres unmarked) , report pEC50.
Data returned: 5.68

###

tested on: HIV-1 (IIIB); experiment: Inhibition of HIV-1 (IIIB)-induced cytopathicity (giant cell formation) in CEM cells; format: cell-based; details: read-out: EC50 HIV-1 (concentration required to inhibit HIV-induced giant cell formation by 50%); HIV-1, CEM cell cultures
Reported pEC50 values for a set of molecules
API: returns pEC50 as number; meaning -log10 of concentration in mol/L.

{"molecule": "CCCCCCCCCCNCc1c(O)cc2c(c1O)-c1cc(ccc1O)C1NC(=O)C3NC(=O)C4NC(=O)C(Cc5ccc(c(Cl)c5)Oc5cc3cc(c5O)Oc3ccc(cc3Cl)C(O)C(NC1=O)C(=O)NC2C(=O)NCCCN(C)C)NC(=O)C(N)c1ccc(O)c(c1)Oc1cc(O)cc4c1 (stereo not shown)", "pEC50": 5.85}
{"molecule": "NC1C(=O)NC2Cc3ccc(c(Cl)c3)Oc3cc4cc(c3O)Oc3ccc(cc3Cl)C(O)C3NC(=O)C(NC(=O)C4NC(=O)C(NC2=O)c2cc(O)cc(c2)Oc2cc1ccc2O)c1ccc(O)c(c1)-c1c(O)cc(O)cc1C(C(=O)N1CCN(Cc2ccc4ccccc4c2)CC1)NC3=O (stereo not shown)", "pEC50": 5.68}
{"molecule": "CCCCc1ccc(CN2CCN(Cc3c(O)cc4c(c3O)-c3cc(ccc3O)C3NC(=O)C5NC(=O)C6NC(=O)C(Cc7ccc(c(Cl)c7)Oc7cc5cc(c7O)Oc5ccc(cc5Cl)C(O)C(NC3=O)C(=O)NC4C(=O)NC)NC(=O)C(N)c3ccc(O)c(c3)Oc3cc(O)cc6c3)CC2)cc1 (stereo not shown)", "pEC50": 5.77}

Data request: Please indicate recorded pEC50 of O=C(NC1C(=O)NC2Cc3ccc(c(Cl)c3)Oc3cc4cc(c3O)Oc3ccc(cc3Cl)C(O)C3NC(=O)C(NC(=O)C4NC(=O)C(NC2=O)c2cc(O)cc(c2)Oc2cc1ccc2O)c1ccc(O)c(c1)-c1c(O)cc(O)cc1C(C(=O)O)NC3=O)OC12CC3CC(CC(C3)C1)C2 (stereo not shown) measured with HIV-1 (IIIB).
Data returned: 4.89

###

Reported pEC50 values for a set of compounds
system: CMV; test: Anti-CMV assay: virus-induced cytopathicity in HEL cell cultures; settings: read-out: EC50 CMV AD-169; CMV strain AD-169, HEL cell cultures
API: returns pEC50 as number; meaning -log10 of concentration in mol/L.

Data request: For the compound NC1C(=O)NC2Cc3ccc(c(Cl)c3)Oc3cc4cc(c3O)Oc3ccc(cc3Cl)C(O)C3NC(=O)C(NC(=O)C4NC(=O)C(NC2=O)c2cc(O)cc(c2)Oc2cc1ccc2O)c1ccc(O)c(c1)-c1c(O)cc(O)cc1C(C(=O)N1CCN(Cc2ccc4ccccc4c2)CC1)NC3=O (centres unmarked) , report pEC50.
Data returned: 4.52

Data request: For the compound NC1C(=O)NC2Cc3ccc(c(Cl)c3)Oc3cc4cc(c3O)Oc3ccc(cc3Cl)C(O)C3NC(=O)C(NC(=O)C4NC(=O)C(NC2=O)c2cc(O)cc(c2)Oc2cc1ccc2O)c1ccc(O)c(c1)-c1c(O)cc(O)cc1C(C(=O)N1CCN(Cc2ccc(C=Cc4ccccc4)cc2)CC1)NC3=O (centres unmarked) , report pEC50.
Data returned: 5.00

###

Reported CC50 values for a set of compounds
system: FCK cells; details: read-out: CC50 FCK; FCK cells
Give the quantity in µM, number only.

{"compound": "CCCCOc1ccc(CN2CCN(C(=O)C3NC(=O)C4NC(=O)C(NC(=O)C5NC(=O)C6NC(=O)C(Cc7ccc(c(Cl)c7)Oc7cc5cc(c7O)Oc5ccc(cc5Cl)C4O)NC(=O)C(N)c4ccc(O)c(c4)Oc4cc(O)cc6c4)c4ccc(O)c(c4)-c4c(O)cc(O)cc43)CC2)cc1 (stereo not shown)", "units": "µM", "CC50": 14}

Next compound, CC50 to be filled in.
Data request: Please indicate recorded CC50 of CC(NC(=O)C1NC(=O)C2NC(=O)C(NC(=O)C3NC(=O)C4NC(=O)C(Cc5ccc(c(Cl)c5)Oc5cc3cc(c5O)Oc3ccc(cc3Cl)C2O)NC(=O)C(N)c2ccc(O)c(c2)Oc2cc(O)cc4c2)c2ccc(O)c(c2)-c2c(O)cc(O)cc21)C12CC3CC(CC(C3)C1)C2 (stereo not shown) measured with FCK cells.
Data returned: 56
